The origin of these recorded values is BigSolDB 2.1.

Conditions: in isobutanol, 305.65 K
readout: solubility (mole fraction)

> print(dat)
      molecularstring                     readout  recordedvalue
1  Clc1cc(Cl)cc(Cl)c1  solubility (mole fraction)          0.131

====

Settings: in isobutanol, 275.65 K
readout: solubility (mole fraction)

> print(dat)
      molecularstring                     readout  recordedvalue
1  Clc1cc(Cl)cc(Cl)c1  solubility (mole fraction)          0.028

====

Details: in toluene, 288.15 K
readout: solubility (mole fraction)

> print(dat)
      molecularstring                     readout  recordedvalue
1  Clc1cc(Cl)cc(Cl)c1  solubility (mole fraction)          0.287
